System: Peptidoglycan synthesis of S. aureus RN450
Assay: microbe, parasite or virus in culture
Format: cell-based
Conditions: Staphylococcus aureus, read-out: Peptidoglycan synthesis IC50
Measurement name: IC50 (µg/mL)
One number for each entry, in µg/mL.

{"Compound": "C[C@H]1c2cccc(O)c2C(=O)C2=C(O)[C@]3(O)C(=O)C(C(N)=O)=C(O)[C@@H](N(C)C)[C@@H]3[C@@H](O)[C@@H]21 [Doxycycline, reference compound]", "Measurement name": "IC50", "Experimental value": 3.9}
{"Compound": "CN(C)[C@@H]1C(O)=C(C(N)=O)C(=O)[C@@]2(O)C(O)=C3C(=O)c4c(O)ccc(-c5ccc(CO)cc5)c4C[C@H]3C[C@@H]12 [AB]", "Measurement name": "IC50", "Experimental value": 18.3}

IC50 lookup needed for CN(C)[C@@H]1C(O)=C(C(N)=O)C(=O)[C@@]2(O)C(O)=C3C(=O)c4c(O)ccc(C#Cc5ccc(N)cc5)c4C[C@H]3C[C@@H]12 [AA] , thanks.
3.8

* * *

Test system: B. cereus 98/2658
Experiment: microbe, parasite or virus in culture
Format: cell-based
Conditions: Bacillus cereus
Measurement name: MIC

The cases that follow already have their MIC on record.
{"Molecule": "CC[C@H]1OC(=O)[C@H](C)[C@@H](O[C@H]2C[C@@](C)(OC)[C@@H](O)[C@H](C)O2)[C@H](C)[C@@H](O[C@@H]2O[C@H](C)C[C@H](N(C)C)[C@H]2O)[C@](C)(O)C[C@@H](C)C(=O)[C@H](C)[C@@H](O)[C@]1(C)O", "MIC": "1 µg/mL"}
{"Molecule": "CN(C)C1C(O)=C(C(N)=O)C(=O)C2(O)C(O)=C3C(=O)c4c(O)cccc4C(C)(O)C3CC12 (stereo not shown) [Tetracycline, reference compound]", "MIC": "≤ 0.06 µg/mL"}
{"Molecule": "C[C@H]1c2cccc(O)c2C(=O)C2=C(O)[C@]3(O)C(=O)C(C(N)=O)=C(O)[C@@H](N(C)C)[C@@H]3[C@@H](O)[C@@H]21 [Doxycycline, reference compound]", "MIC": "≤ 0.06 µg/mL"}
{"Molecule": "CO/N=C(\\C(=O)N[C@@H]1C(=O)N2C(C(=O)O)=C(COC(C)=O)CS[C@H]12)c1csc(N)n1", "MIC": "> 64 µg/mL"}
{"Molecule": "CN(C)c1ccc(O)c2c1C[C@H]1C[C@H]3[C@H](N(C)C)C(O)=C(C(N)=O)C(=O)[C@@]3(O)C(O)=C1C2=O [Minocycline, reference compound]", "MIC": "≤ 0.06 µg/mL"}

Record MIC for all entries; do not skip any.
1. CN[C@H](CC(C)C)C(=O)N[C@H]1C(=O)N[C@@H](CC(N)=O)C(=O)N[C@H]2C(=O)N[C@H]3C(=O)N[C@H](C(=O)N[C@H](C(=O)O)c4cc(O)cc(O)c4-c4cc3ccc4O)[C@H](O)c3ccc(c(Cl)c3)Oc3cc2cc(c3O[C@@H]2O[C@H](CO)[C@@H](O)[C@H](O)[C@H]2O[C@H]2C[C@](C)(N)[C@H](O)[C@H](C)O2)Oc2ccc(cc2Cl)[C@H]1O
2. CCC[C@@H]1C[C@@H](C(=O)N[C@@H]([C@H]2O[C@H](SC)[C@H](O)[C@@H](O)[C@H]2O)[C@H](C)Cl)N(C)C1

1. 2 µg/mL
2. 0.5 µg/mL

* * *

System: S. aureus MRSA5
Assay: microbe, parasite or virus in culture
Type: cell-based
Settings: Staphylococcus aureus
For each entry below, report its MIC value.
Give bare numbers, in µg/mL.

The cases that follow already have their MIC on record.
{"Molecule": "CN(C)c1cc(CN2Cc3ccccc3C2)c(O)c2c1C[C@H]1C[C@H]3[C@H](N(C)C)C(O)=C(C(N)=O)C(=O)[C@@]3(O)C(O)=C1C2=O [AI]", "Value units": "µg/mL", "MIC": 0.5}
{"Molecule": "CN(C)c1cc(CN2CCC3CCCCC3C2)c(O)c2c1C[C@H]1C[C@H]3[C@H](N(C)C)C(O)=C(C(N)=O)C(=O)[C@@]3(O)C(O)=C1C2=O (stereo partly drawn) [AJ]", "Value units": "µg/mL", "MIC": 0.5}
{"Molecule": "CN(C)[C@@H]1C(O)=C(C(N)=O)C(=O)[C@@]2(O)C(O)=C3C(=O)c4c(O)c(CNCCC(F)(F)F)cc(-c5ncccn5)c4C[C@H]3C[C@@H]12 [J]", "Value units": "µg/mL", "MIC": 0.5}
{"Molecule": "COC(=O)c1ccc(CNCc2cc(N(C)C)c3c(c2O)C(=O)C2=C(O)[C@]4(O)C(=O)C(C(N)=O)=C(O)[C@H](N(C)C)[C@@H]4C[C@@H]2C3)cc1 [D]", "Value units": "µg/mL", "MIC": 1}
{"Molecule": "CN(Cc1ccccc1)Cc1cc(N(C)C)c2c(c1O)C(=O)C1=C(O)[C@]3(O)C(=O)C(C(N)=O)=C(O)[C@@H](N(C)C)[C@@H]3C[C@@H]1C2 [Compound I]", "Value units": "µg/mL", "MIC": 1}

Turning now to a further record.
MIC lookup needed for CN(C)c1cc(CNC2CCCCC2)c(O)c2c1C[C@H]1C[C@H]3[C@H](N(C)C)C(O)=C(C(N)=O)C(=O)[C@@]3(O)C(O)=C1C2=O [B] , thanks.
1

* * *

Test system: Protein synthesis of S. aureus RN450
Experiment: microbe, parasite or virus in culture
Type: cell-based
Details: Staphylococcus aureus, read-out: Protein synthesis IC90
For each entry below, report its IC90 value.

The cases that follow already have their IC90 on record.
{"Molecule": "CN(C)C1C(O)=C(C(N)=O)C(=O)C2(O)C(O)=C3C(=O)c4c(O)cccc4C(C)(O)C3CC12 (stereo not shown) [Tetracycline, reference compound]", "IC90": "0.11 µg/mL"}
{"Molecule": "CN(C)[C@@H]1C(O)=C(C(N)=O)C(=O)[C@@]2(O)C(O)=C3C(=O)c4c(O)ccc(C(=O)CN5CCCCC5)c4C[C@H]3C[C@@H]12", "IC90": "0.92 µg/mL"}
{"Molecule": "CO/N=C/c1cc(-c2ccc(O)c3c2C[C@H]2C[C@H]4[C@H](N(C)C)C(O)=C(C(N)=O)C(=O)[C@@]4(O)C(O)=C2C3=O)ccc1OC", "IC90": "5 µg/mL"}
{"Molecule": "CN(C)c1ccc(O)c2c1C[C@H]1C[C@H]3[C@H](N(C)C)C(O)=C(C(N)=O)C(=O)[C@@]3(O)C(O)=C1C2=O [Minocycline, reference compound]", "IC90": "0.1 µg/mL"}
{"Molecule": "CN(C)c1cc(NC(=O)CNC(C)(C)C)c(O)c2c1C[C@H]1C[C@H]3[C@H](N(C)C)C(O)=C(C(N)=O)C(=O)[C@@]3(O)C(O)=C1C2=O [Tigecycline, reference compound]", "IC90": "0.68 µg/mL"}
{"Molecule": "CN(C)[C@@H]1C(O)=C(C(N)=O)C(=O)[C@@]2(O)C(O)=C3C(=O)c4c(O)ccc(C#Cc5ccc(N)cc5)c4C[C@H]3C[C@@H]12", "IC90": "1.4 µg/mL"}

Record IC90 for all entries; do not skip any.
1. CN(C)[C@@H]1C(O)=C(C(N)=O)C(=O)[C@@]2(O)C(O)=C3C(=O)c4c(O)ccc(-c5ccc(CO)cc5)c4C[C@H]3C[C@@H]12
2. C[C@H]1c2cccc(O)c2C(=O)C2=C(O)[C@]3(O)C(=O)C(C(N)=O)=C(O)[C@@H](N(C)C)[C@@H]3[C@@H](O)[C@@H]21 [Doxycycline, reference compound]
3. Cc1c2c(c(O)c3c(O)cccc13)C(=O)[C@]1(O)C(=O)C(C(N)=O)=C(O)[C@@H](N(C)C)[C@@H]1C2 [Anhydro-tetracycline, anhydrotetracycline, reference compound]

1.8 µg/mL
< 0.03 µg/mL
< 0.03 µg/mL

IC90 lookup needed for `CN(C)[C@@H]1C(O)=C(C(N)=O)C(=O)[C@@]2(O)C(O)=C3C(=O)c4c(O)ccc(-c5ccc(NC(=O)c6ccno6)cc5)c4C[C@H]3C[C@@H]12` , thanks.
0.62 µg/mL

* * *

Test system: S. pneumoniae 157E
Test: animal or person
Type: in vivo, mice
Conditions: Streptococcus pneumoniae, 157E, in Mus musculus, po, 48 h, read-out: % survival
For each entry below, report its responders at 10 mg/kg value.
Give bare numbers, in %.

The cases that follow already have their responders at 10 mg/kg on record.
{"Molecule": "CO/N=C(\\C)c1cc(CNCC(C)(C)C)c(O)c2c1C[C@H]1C[C@H]3[C@H](N(C)C)C(O)=C(C(N)=O)C(=O)[C@@]3(O)C(O)=C1C2=O", "responders at 10 mg/kg / %": 0}
{"Molecule": "CC(CF)N(C)Cc1cc(N(C)C)c2c(c1O)C(=O)C1=C(O)[C@]3(O)C(=O)C(C(N)=O)=C(O)[C@@H](N(C)C)[C@@H]3C[C@@H]1C2 (stereo partly shown)", "responders at 10 mg/kg / %": 60}

Record responders at 10 mg/kg for all entries; do not skip any.
1. COC(=O)c1ccc(CNCc2cc(N(C)C)c3c(c2O)C(=O)C2=C(O)[C@]4(O)C(=O)C(C(N)=O)=C(O)[C@H](N(C)C)[C@@H]4C[C@@H]2C3)cc1
2. CN(C)c1cc(CN2Cc3ccccc3C2)c(O)c2c1C[C@H]1C[C@H]3[C@H](N(C)C)C(O)=C(C(N)=O)C(=O)[C@@]3(O)C(O)=C1C2=O

0
0
